System Under Test: Muscarinic acetylcholine receptor M2 (Homo sapiens, UniProt P08172)
Sequence (P08172 whole entry): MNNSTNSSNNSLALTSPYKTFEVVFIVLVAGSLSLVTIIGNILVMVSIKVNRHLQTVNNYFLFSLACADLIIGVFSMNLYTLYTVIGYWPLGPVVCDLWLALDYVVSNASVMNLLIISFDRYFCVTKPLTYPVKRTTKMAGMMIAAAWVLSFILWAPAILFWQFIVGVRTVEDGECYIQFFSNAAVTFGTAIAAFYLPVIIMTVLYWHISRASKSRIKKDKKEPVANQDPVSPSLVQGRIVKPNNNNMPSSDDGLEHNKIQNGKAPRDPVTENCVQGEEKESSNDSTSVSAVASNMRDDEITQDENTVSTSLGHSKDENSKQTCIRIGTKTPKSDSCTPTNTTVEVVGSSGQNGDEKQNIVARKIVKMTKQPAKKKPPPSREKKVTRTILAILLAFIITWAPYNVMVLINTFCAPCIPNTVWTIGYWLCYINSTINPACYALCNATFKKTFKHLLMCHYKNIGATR
Assay Explanation: Compound was tested for its potency towards Muscarinic acetylcholine receptor M2 by inhibiting forskolin induced c-AMP formation in CHO-M2 cells
Assay type: functional, cell-based

Compound	EC50 / µM
COc1cccc(C#CCO/N=C2\CN3CCC2C3)c1 (stereo unspecified)	26.7

----------
Known IC50 of a selection of molecules
System Under Test: Muscarinic acetylcholine receptor M2 (Rattus norvegicus)
Sequence (P10980 whole entry): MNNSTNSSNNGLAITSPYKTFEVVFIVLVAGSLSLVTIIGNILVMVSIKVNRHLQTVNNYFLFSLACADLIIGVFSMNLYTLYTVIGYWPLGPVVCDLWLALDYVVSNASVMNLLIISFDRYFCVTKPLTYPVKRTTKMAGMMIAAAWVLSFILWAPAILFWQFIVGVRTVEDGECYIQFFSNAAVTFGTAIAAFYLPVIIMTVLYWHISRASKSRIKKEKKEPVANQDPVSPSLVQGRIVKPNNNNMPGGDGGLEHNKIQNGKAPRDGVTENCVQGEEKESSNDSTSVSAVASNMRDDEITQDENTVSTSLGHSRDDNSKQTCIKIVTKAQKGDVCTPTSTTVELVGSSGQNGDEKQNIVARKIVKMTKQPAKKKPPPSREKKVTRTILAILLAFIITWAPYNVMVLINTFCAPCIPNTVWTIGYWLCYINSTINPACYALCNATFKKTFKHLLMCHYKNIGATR
Assay Explanation: Inhibition of [3H]- Oxo-M binding at Muscarinic acetylcholine receptor M2 in rat brain membranes.
Assay type: cell membranes

Query Smiles	IC50 [nM]
CN1CCC=C(c2nsnc2OCC#Cc2ccccc2)C1	14
Fc1cc(Cl)cc(C#CCOc2nsnc2C23CN4CC2C3C4)c1	92
Clc1ccc(C#CCOc2nsnc2C23CN4CC2C3C4)cc1	63
Fc1cccc(C#CCSc2nsnc2C23CN4CC2C3C4)c1	26
Fc1cc(Cl)cc(C#CCSc2nsnc2C23CN4CC2C3C4)c1	142

----------
System Under Test: Muscarinic acetylcholine receptor M1 (Homo sapiens, UniProt P11229)
Sequence (P11229 whole entry): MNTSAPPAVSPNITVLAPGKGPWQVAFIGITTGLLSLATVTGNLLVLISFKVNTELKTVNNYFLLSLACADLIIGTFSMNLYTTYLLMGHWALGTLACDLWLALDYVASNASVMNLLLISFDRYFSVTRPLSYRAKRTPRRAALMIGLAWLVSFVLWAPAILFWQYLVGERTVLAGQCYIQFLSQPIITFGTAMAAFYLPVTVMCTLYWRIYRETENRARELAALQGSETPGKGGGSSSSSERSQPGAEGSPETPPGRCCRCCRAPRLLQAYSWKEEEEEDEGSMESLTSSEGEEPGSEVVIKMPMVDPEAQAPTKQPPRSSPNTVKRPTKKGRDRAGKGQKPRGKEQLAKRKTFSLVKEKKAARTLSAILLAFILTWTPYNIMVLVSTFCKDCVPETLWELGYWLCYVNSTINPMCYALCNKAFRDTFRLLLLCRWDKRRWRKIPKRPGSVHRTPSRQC
Assay Explanation: Stimulation of phosphoinositol hydrolysis in the mouse fibroblast cell line A9L-M1 expressing Muscarinic acetylcholine receptor M1.
Type: functional, cell-based
The label is MET for EC50 below 50 nM and NOT MET for EC50 equal to or exceeding 50 nM.

Compound	Assigned Class
Fc1ccc(C#CCOc2nsnc2C23CN4CC2C3C4)cc1	NOT MET
Fc1cc(Cl)cc(C#CCOc2nsnc2C23CN4CC2C3C4)c1	NOT MET
Clc1cccc(C#CCSc2nsnc2C23CN4CC2C3C4)c1	MET
Clc1cc(Cl)cc(C#CCSc2nsnc2C23CN4CC2C3C4)c1	NOT MET
COc1cccc(C#CCO/N=C2\CN3CCC2C3)c1 (centres undefined)	NOT MET
Fc1cc(F)cc(C#CCOc2nsnc2C23CN4CC2C3C4)c1	MET
Clc1cc(Cl)cc(C#CCOc2nsnc2C23CN4CC2C3C4)c1	NOT MET
Fc1cccc(C#CCSc2nsnc2C23CN4CC2C3C4)c1	MET
C(#Cc1ccccc1)CSc1nsnc1C12CN3CC1C2C3	NOT MET
Fc1cc(Cl)cc(C#CCSc2nsnc2C23CN4CC2C3C4)c1	MET
Fc1cc(F)cc(C#CCSc2nsnc2C23CN4CC2C3C4)c1	MET
Clc1ccc(C#CCSc2nsnc2C23CN4CC2C3C4)cc1	NOT MET
Fc1ccc(C#CCSc2nsnc2C23CN4CC2C3C4)cc1	MET
Clc1cccc(C#CCOc2nsnc2C23CN4CC2C3C4)c1	MET

----------
System Under Test: Muscarinic acetylcholine receptor M2 (Homo sapiens)
Assay Explanation: Compound was tested for its potency at M-2 receptor by inhibiting forskolin induced c-AMP formation in CHO-M2 cells human M2 receptor
Type: functional, cell-based
Parameter: log10 EC50 (log10 of the value in nM)

Query Smiles	System Under Test	Assay Result
Fc1ccc(C#CCSc2nsnc2C23CN4CC2C3C4)cc1	Muscarinic acetylcholine receptor M2 (Homo sapiens)	1.92
Fc1cc(Cl)cc(C#CCOc2nsnc2C23CN4CC2C3C4)c1	Muscarinic acetylcholine receptor M2 (Homo sapiens)	3.17
Clc1ccc(C#CCSc2nsnc2C23CN4CC2C3C4)cc1	Muscarinic acetylcholine receptor M2 (Homo sapiens)	1.90
Fc1cc(F)cc(C#CCOc2nsnc2C23CN4CC2C3C4)c1	Muscarinic acetylcholine receptor M2 (Homo sapiens)	3.43
Clc1cc(Cl)cc(C#CCSc2nsnc2C23CN4CC2C3C4)c1	Muscarinic acetylcholine receptor M2 (Homo sapiens)	2.72
Clc1ccc(C#CCOc2nsnc2C23CN4CC2C3C4)cc1	Muscarinic acetylcholine receptor M2 (Homo sapiens)	3.08
Fc1cccc(C#CCSc2nsnc2C23CN4CC2C3C4)c1	Muscarinic acetylcholine receptor M2 (Homo sapiens)	2.96
C(#Cc1ccccc1)CSc1nsnc1C12CN3CC1C2C3	Muscarinic acetylcholine receptor M2 (Homo sapiens)	2.93
Clc1cccc(C#CCOc2nsnc2C23CN4CC2C3C4)c1	Muscarinic acetylcholine receptor M2 (Homo sapiens)	3.36
Fc1cc(Cl)cc(C#CCSc2nsnc2C23CN4CC2C3C4)c1	Muscarinic acetylcholine receptor M2 (Homo sapiens)	2.88
Clc1cccc(C#CCSc2nsnc2C23CN4CC2C3C4)c1	Muscarinic acetylcholine receptor M2 (Homo sapiens)	2.83
Fc1ccc(C#CCOc2nsnc2C23CN4CC2C3C4)cc1	Muscarinic acetylcholine receptor M2 (Homo sapiens)	2.90
Fc1cccc(C#CCOc2nsnc2C23CN4CC2C3C4)c1	Muscarinic acetylcholine receptor M2 (Homo sapiens)	2.83
Fc1cc(F)cc(C#CCSc2nsnc2C23CN4CC2C3C4)c1	Muscarinic acetylcholine receptor M2 (Homo sapiens)	3.22
